Parameter 'readout' = GI50; parameter 'system' = IGROV1 ovarian.

Answered cases to consult:
{"smilesText": "Cc1ccc(-c2c3c(nn2-c2ccc(S(=O)(=O)NC(=O)Nc4ccccc4)cc2)-c2ccccc2C3)cc1", "GI50": "3.67 µM"}
{"smilesText": "Cc1cc2nc3c4cc(C=O)ccc4n(CCN(C)C)c3nc2cc1C", "GI50": "1.52 µM"}

We now examine a further compound.
The measured GI50 associated with `C/C(Cc1ccc(Cl)cc1)=C(\c1ccc(OCCN2CCCCCC2)cc1)c1ccc(OC(=O)c2ccccc2)cc1` reads 2.72 µM

---

test system: LOX IMVI melanoma; assay: NCI tumour cell line growth inhibition, 48 h
Property: TGI; scope: individual compounds

Answered cases to consult:
{"compound": "NC(=Nc1ccc(Cl)cc1)c1ccccc1N", "TGI": "> 100 µM"}
{"compound": "C=CCSSC1N=CNc2nc[nH]c21 (stereo not drawn)", "TGI": "14.6 µM"}
{"compound": "N#CC(C#N)=c1ccc(=C2N3CCCC3CN2C23CC4CC(CC(C4)C2)C3)cc1 (stereo not drawn)", "TGI": "> 100 µM"}
{"compound": "Cc1cc2c(cc1C)[n+]([O-])c(NCCCN(C)C)c(C#N)[n+]2[O-]", "TGI": "> 100 µM"}
{"compound": "CC#CC#Cc1cccc(=O)o1", "TGI": "24.1 µM"}

The measured TGI associated with `Nc1ccc(N)c2c1C(=O)c1ccccc1C2=O` reads > 100 µM

The measured TGI associated with COC1(C)OC[C@@]2(C)OC(C)C1(C)C2O[Si](C(C)C)(C(C)C)C(C)C (stereo partly drawn) reads 42.6 µM

The measured TGI associated with Cc1cc(C23OC4COC(C)(C)OC4C2OC(C)(C)O3)nc2ccccc12 (stereo not drawn) reads > 100 µM

The measured TGI associated with `O=c1nc2n(c3nsnc13)CCO2` reads > 100 µM

The measured TGI associated with `Cc1cc(CN2CCCCC2)c(O)c(CN2CCCCC2)c1` reads > 100 µM

The measured TGI associated with `Cc1ccc2cc3c(N)c4c(C)ccc(C)c4nc3nc2c1` reads 3.4 µM

The measured TGI associated with `O=C1Cc2ccccc2N1/N=C\c1ccc([N+](=O)[O-])cc1` reads > 100 µM

The measured TGI associated with NC(C(=O)O)c1cc(=O)[nH]o1 (stereo not drawn) reads > 100 µM

The measured TGI associated with `CCN(CC)S(=O)(=O)c1ccc2nc(NC(=O)OC)[nH]c2c1` reads > 100 µM

The measured TGI associated with `CCCCc1[nH]ccc2c(C)c3nc4ccccc4c3cc12` reads 4.3 µM

The measured TGI associated with `CCCOC(=O)c1ccc2c(c1)[N+](=O)C(C(=O)c1ccccc1)=C(C(F)(F)F)[N+]2=O` reads 3.35 µM

---

Property: TGI; scope: individual compounds
system: SNB-75 CNS; assay: NCI tumour cell line growth inhibition, 48 h
Value expressed in µM; do not type the unit.

Answered cases to consult:
{"compound": "Brc1ccc2c(C3CN[C@@H](c4c[nH]c5cc(Br)ccc45)CN3)c[nH]c2c1 (stereo not given in full)", "TGI (µM)": 31.7}
{"compound": "C/C(=N/NC(=S)N1CCCCC1)c1cccc(/C(C)=N\\NC(=S)N2CCCCC2)n1", "TGI (µM)": 6.53}
{"compound": "O=C(Nc1ccc(OCc2nnc(-c3ccc(Cl)cc3)o2)c(F)c1)Nc1ccc(Cl)c(Cl)c1", "TGI (µM)": 4.88}

We now examine a further compound.
The measured TGI associated with `CC/C(=C(\c1ccc(Cl)cc1)c1ccc(OCCN2CCCCC2)cc1)c1ccc(O)cc1` reads 3.64
